Listed compounds paired with reported IC50
- system-under-test: MALT-1 (Isoform 1) (Homo sapiens, UniProt Q9UDY8)
- Construct: using recombinant MALT-1 (Isoform 1, aa-840) generated in house
- assay-procedure: MALT-1 (Isoform 1) enzyme fluorescent biochemical assay
- condition-context: dose-response, sigmoidal curve fit; reported as groups A, B, C

COc1cc(F)cc(Cn2ncc(C(=O)Nc3cnc(-n4nccn4)c(C#N)c3)c2C(F)(F)F)c1; > 1000 nM
N#Cc1cc(NC(=O)c2cnn(Cc3cccc(F)c3Cl)c2C(F)(F)F)cnc1-c1ccsc1; 251 to 1000 nM
CC(c1cccc(F)c1)n1ncc(C(=O)Nc2cnc(-n3nccn3)c(C#N)c2)c1C(F)(F)F (racemic) [Compound 3]; < 250 nM
N#Cc1cc(NC(=O)c2cnn(Cc3cc(F)cc(F)c3)c2C(F)(F)F)cnc1-n1nccn1; 251 to 1000 nM
N#Cc1cccc(Cn2ncc(C(=O)Nc3cnc(-n4nccn4)c(C#N)c3)c2C(F)(F)F)c1; < 250 nM

Measured IC50, O=C(Nc1cncnc1)c1cnn(Cc2cccc(F)c2Cl)c1C(F)(F)F : > 1000 nM

Measured IC50, N#Cc1cc(NC(=O)c2cnn(Cc3cccc(F)c3Cl)c2C(F)(F)F)cnc1-n1nccn1 : < 250 nM

Measured IC50, N#Cc1cc(NC(=O)c2cnn(Cc3ccc(Cl)cc3)c2C(F)(F)F)cnc1-n1nccn1 : 251 to 1000 nM

Measured IC50, N#Cc1cc(NC(=O)c2cnn(Cc3ccccc3)c2C(F)(F)F)cnc1-n1nccn1 : 251 to 1000 nM

Measured IC50, Cc1c(F)cccc1C(C)n1ncc(C(=O)Nc2cnc(-n3nccn3)c(C#N)c2)c1C(F)(F)F (stereo not shown) : < 250 nM

Measured IC50, N#Cc1cc(NC(=O)c2cnn(Cc3cccc(F)c3C(F)F)c2C(F)(F)F)cnc1-n1nccn1 : 251 to 1000 nM

---

- system-under-test: MALT-1 (Isoform 1) (Homo sapiens, UniProt Q9UDY8)
- Construct: using recombinant MALT-1 (Isoform 1, aa-840) generated in house; made in house
- Sequence (Q9UDY8 1-824): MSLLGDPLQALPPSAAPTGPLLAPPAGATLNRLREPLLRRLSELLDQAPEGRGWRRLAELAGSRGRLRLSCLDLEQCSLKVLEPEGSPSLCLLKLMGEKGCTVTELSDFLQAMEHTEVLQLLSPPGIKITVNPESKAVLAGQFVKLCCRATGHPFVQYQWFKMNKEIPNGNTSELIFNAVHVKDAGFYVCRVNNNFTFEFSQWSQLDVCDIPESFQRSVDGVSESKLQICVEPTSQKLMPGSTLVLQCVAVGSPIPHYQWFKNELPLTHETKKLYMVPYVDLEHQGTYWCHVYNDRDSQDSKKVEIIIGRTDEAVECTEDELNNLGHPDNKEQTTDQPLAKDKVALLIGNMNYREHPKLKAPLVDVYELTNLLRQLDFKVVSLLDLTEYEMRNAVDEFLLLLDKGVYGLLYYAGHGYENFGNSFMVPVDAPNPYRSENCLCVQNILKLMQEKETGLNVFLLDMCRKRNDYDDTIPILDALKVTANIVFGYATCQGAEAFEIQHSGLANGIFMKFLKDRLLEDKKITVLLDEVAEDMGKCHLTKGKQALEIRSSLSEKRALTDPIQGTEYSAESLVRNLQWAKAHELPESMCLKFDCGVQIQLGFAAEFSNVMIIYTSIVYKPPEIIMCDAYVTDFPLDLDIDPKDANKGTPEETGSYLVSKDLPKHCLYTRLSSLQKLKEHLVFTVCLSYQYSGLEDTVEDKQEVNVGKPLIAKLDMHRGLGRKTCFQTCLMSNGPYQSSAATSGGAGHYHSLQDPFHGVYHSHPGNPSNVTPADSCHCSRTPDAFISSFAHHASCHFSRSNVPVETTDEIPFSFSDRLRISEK
- assay-procedure: MALT-1 (Isoform 1) enzyme fluorescent biochemical assay
- condition-context: test compound 1 μM; recombinant MALT-1 1.5 nM; read-out: Percent Inhibition (1 μM)
Listed molecules paired with reported inhibition at 1 µM
Report the value in % with no unit label.

O=C(Nc1cnc(C(=O)N2CCCC2)c(Cl)c1)c1cnn(Cc2cccc(F)c2Cl)c1C(F)(F)F; 40
N#Cc1cc(NC(=O)c2cnn(Cc3cccc(F)c3F)c2C(F)(F)F)cnc1-n1nccn1; 100
N#Cc1cc(NC(=O)c2cnn(Cc3cccc(C(F)(F)F)c3)c2C(F)(F)F)cnc1-n1nccn1; 67
N#Cc1cc(NC(=O)c2cnn(Cc3cc(F)ccc3F)c2C(F)(F)F)cnc1-n1nccn1; 70
N#Cc1cc(NC(=O)c2cnn(Cc3ccccc3)c2C(F)(F)F)cnc1-n1nccn1; 88
COc1cc(F)cc(Cn2ncc(C(=O)Nc3cnc(-n4nccn4)c(C#N)c3)c2C(F)(F)F)c1; 42

Measured inhibition at 1 µM, N#Cc1cccc(Cn2ncc(C(=O)Nc3cnc(-n4nccn4)c(C#N)c3)c2C(F)(F)F)c1 : 98

Measured inhibition at 1 µM, N#Cc1cc(NC(=O)c2cnn(Cc3cccc(F)c3)c2C2CC2)cnc1-n1nccn1 : 45

Measured inhibition at 1 µM, O=C(Nc1cc(C(F)(F)F)ccn1)c1cnn(Cc2cccc(F)c2Cl)c1C(F)(F)F : 32

Measured inhibition at 1 µM, O=C(Nc1cnc(-n2nccn2)c(Cl)c1)c1cnn(Cc2cccc(F)c2Cl)c1C(F)(F)F : 99

Measured inhibition at 1 µM, O=C(Nc1cncc(C(F)(F)F)c1)c1cnn(Cc2cccc(F)c2Cl)c1C(F)(F)F : 71

---

- system-under-test: MALT-1 (Isoform 1) (Homo sapiens)
- Construct: using recombinant MALT-1 (Isoform 1, aa-840) generated in house; made in house
- assay-procedure: MALT-1 (Isoform 1) enzyme fluorescent biochemical assay
- condition-context: test compound 1 μM; recombinant MALT-1 1.5 nM; read-out: Percent Inhibition (1 μM)
assay-readout: inhibition at 1 µM (%)
Report the value in % with no unit label.

Record excerpt, results attached:
CC(c1cccc(F)c1)n1ncc(C(=O)Nc2cnc(-n3nccn3)c(Cl)c2)c1C(F)(F)F (racemic) [Compound 4]; 77
N#Cc1cc(NC(=O)c2cnn(Cc3cccc(F)c3Cl)c2C(F)(F)F)cnc1-n1nccn1 [Compound 1]; 100
CC(c1ccccc1)n1ncc(C(=O)Nc2cnc(-n3nccn3)c(C#N)c2)c1C(F)(F)F (racemic) [Compound 2]; 96

Shift focus to the following entry.
GET /values?item= N#Cc1cc(NC(=O)c2cnn(Cc3cccc(F)c3Cl)c2C(F)(F)F)cnc1-c1ccoc1 [Compound 54] &system= MALT-1 (Isoform 1) (Homo sapiens) returns inhibition at 1 µM: 77

---

- system-under-test: MALT-1 (Isoform 1) (Homo sapiens)
- Construct: using recombinant MALT-1 (Isoform 1, aa-840) generated in house
- assay-procedure: MALT-1 (Isoform 1) enzyme fluorescent biochemical assay
- condition-context: dose-response, sigmoidal curve fit; reported as groups A, B, C
pIC50: −log10 of the molar value.
assay-readout: pIC50

Record excerpt, results attached:
O=C(Nc1cnc(-n2nccn2)c(Cl)c1)c1cnn(Cc2cccc(F)c2Cl)c1C(F)(F)F [Compound 34]; > 6.60
N#Cc1cc(NC(=O)c2cnn(Cc3ccncc3)c2C(F)(F)F)cnc1-n1nccn1 [Compound 13]; < 6.00

Measured pIC50, CC(c1cccc(F)c1)n1ncc(C(=O)Nc2cnc(-n3nccn3)c(Cl)c2)c1C(F)(F)F (single isomer, unassigned) [Compound 4b] : > 6.60

Measured pIC50, CC(c1ccccc1)n1ncc(C(=O)Nc2cnc(-n3nccn3)c(C#N)c2)c1C(F)(F)F (racemic) [Compound 2] : > 6.60

Measured pIC50, N#Cc1cc(NC(=O)c2cnn(Cc3cccc(F)c3Cl)c2C(F)(F)F)cnc1-c1ccoc1 [Compound 54] : 6.00 to 6.60

---

- system-under-test: MALT-1 (Isoform 1) (Homo sapiens, UniProt Q9UDY8)
- Construct: using recombinant MALT-1 (Isoform 1, aa-840) generated in house; made in house
- assay-procedure: MALT-1 (Isoform 1) enzyme fluorescent biochemical assay
- condition-context: test compound 1 μM; recombinant MALT-1 1.5 nM; read-out: Percent Inhibition (1 μM)
Listed compounds paired with reported inhibition at 1 µM
Remember to follow the number with its unit.

N#Cc1cc(NC(=O)c2cnn(Cc3cccc(F)c3)c2C(F)(F)F)cnc1-n1nccn1; 99%
CC(c1ccccc1)n1ncc(C(=O)Nc2cnc(-n3nccn3)c(Cl)c2)c1C(F)(F)F (racemic); 89%
Cc1c(F)cccc1Cn1ncc(C(=O)Nc2cnc(-n3nccn3)c(C#N)c2)c1C(F)(F)F; 100%
CCC(c1cccc(F)c1)n1ncc(C(=O)Nc2cnc(-n3nccn3)c(C#N)c2)c1C(F)(F)F (stereo not shown); 81%
N#Cc1cc(NC(=O)c2cnn(Cc3cc(F)cc(F)c3)c2C(F)(F)F)cnc1-n1nccn1; 86%
Cc1c(F)cccc1Cn1ncc(C(=O)Nc2cnc(-n3nccn3)c(Cl)c2)c1C(F)(F)F; 99%
CC(c1cccc(Cl)c1)n1ncc(C(=O)Nc2cnc(-n3nccn3)c(C#N)c2)c1C(F)(F)F (stereo not shown); 100%
N#Cc1cc(NC(=O)c2cnn(Cc3ccccc3Cl)c2C(F)(F)F)cnc1-n1nccn1; 46%
COc1c(F)cccc1Cn1ncc(C(=O)Nc2cnc(-n3nccn3)c(C#N)c2)c1C(F)(F)F; 100%
N#Cc1cc(NC(=O)c2cnn(Cc3ccc(F)cc3)c2C(F)(F)F)cnc1-n1nccn1; 44%

Measured inhibition at 1 µM, N#Cc1cc(NC(=O)c2cnn(Cc3cccnc3)c2C(F)(F)F)cnc1-n1nccn1 : 47%

Measured inhibition at 1 µM, N#Cc1cc(NC(=O)c2cnn(Cc3cccc(Cl)c3)c2C(F)(F)F)cnc1-n1nccn1 : 87%

Measured inhibition at 1 µM, O=C(Nc1ccnc(C(F)(F)F)c1)c1cnn(Cc2cccc(F)c2Cl)c1C(F)(F)F : 75%
